Listed next: entries and their corresponding combination Emax.
System: KGN (Other Solid Carcinomas)
Assay: combination Emax (second highest fraction inhibited in the dose matrix, 72 h); higher = more inhibition; extreme values may be limits of the assay
Output: the number by itself.

Completed entries (count: 2):
compound	combination Emax
CN(CCO)CC[C@H](CSc1ccccc1)Nc1ccc(S(=O)(=O)NC(=O)c2ccc(N3CCC([C@@H](O)c4ccccc4-c4ccc(Cl)cc4)CC3)cc2)cc1S(=O)(=O)C(F)(F)F [AZD4320] + Cc1cc2ncnn2cc1Nc1ncc2c(n1)n(C1CCOCC1)c(=O)n2C [AZD7648] (first compound max 1 µM, 7x7, partner max 10 µM)	0.437
Cc1c2c(nn1C)CSCc1cc(n(C)n1)CSc1cc(c3ccccc3c1)OCCCc1c(C(=O)O)n(C)c3c-2c(Cl)ccc13 [AZD5991] + Cn1cnc2c(F)c(Nc3ccc(Br)cc3Cl)c(C(=O)NOCCO)cc21 [Selumetinib] (first compound max 1 µM, 7x7, partner max 3 µM)	0.299

Task item: Request the reported combination Emax associated with Cc1cc2ncnn2cc1Nc1ncc2c(n1)n(C1CCOCC1)c(=O)n2C [AZD7648] + CCN(CCO)CCCOc1ccc2c(Nc3cc(CC(=O)Nc4cccc(F)c4)[nH]n3)ncnc2c1 [AZD2811] (first compound max 10 µM, 7x7, partner max 1 µM)
Reply: 0.722

----------
Tested on: NCI-H522 (Lung Adenocarcinoma)
Assay: combination Emax (second highest fraction inhibited in the dose matrix, 72 h); higher = more inhibition; extreme values may be limits of the assay
measurement-kind: combination Emax
Write the number on its own, no unit after it.

// worked examples, combination Emax included
compound	combination Emax
CN(CCO)CC[C@H](CSc1ccccc1)Nc1ccc(S(=O)(=O)NC(=O)c2ccc(N3CCC([C@@H](O)c4ccccc4-c4ccc(Cl)cc4)CC3)cc2)cc1S(=O)(=O)C(F)(F)F [AZD4320] + Cc1cc2ncnn2cc1Nc1ncc2c(n1)n(C1CCOCC1)c(=O)n2C [AZD7648] (first compound max 1 µM, 7x7, partner max 10 µM)	0.0447
N#Cc1cnc(Nc2cc(NC[C@H]3CNCCO3)c(C(F)(F)F)cn2)cn1 [SRA737] + Nc1ccn([C@@H]2O[C@H](CO)[C@@H](O)C2(F)F)c(=O)n1 [Gemcitabine] (first compound max 10 µM, 7x7, partner max 0.3 µM)	0.855
COc1cc2c(cc1OCCCCCOc1cc3c(cc1OC)C(=O)N1C=C(C)C[C@H]1C=N3)N=C[C@@H]1CC(C)=CN1C2=O [SG3199] + O=C(c1cc(Cc2n[nH]c(=O)c3ccccc23)ccc1F)N1CCN(C(=O)C2CC2)CC1 [Olaparib] (first compound max 0.001 µM, 7x7, partner max 10 µM)	0.144
Cn1cnc2c(F)c(Nc3ccc(Br)cc3Cl)c(C(=O)NOCCO)cc21 [Selumetinib] + CCN(CCO)CCCOc1ccc2c(Nc3cc(CC(=O)Nc4cccc(F)c4)[nH]n3)ncnc2c1 [AZD2811] (first compound max 10 µM, 7x7, partner max 1 µM)	0.171

Task item: Can you share its combination Emax? I mean this compound: N#Cc1cnc(Nc2cc(NC[C@H]3CNCCO3)c(C(F)(F)F)cn2)cn1 [SRA737] + O=c1[nH]cc(F)c(=O)[nH]1 [5-Fluorouracil] (first compound max 10 µM, 7x7, partner max 20 µM)
Reply: 0.0376

Task item: combination Emax for CS(=O)(=O)CCNCc1ccc(-c2ccc3ncnc(Nc4ccc(OCc5cccc(F)c5)c(Cl)c4)c3c2)o1 [Lapatinib] + NC1(c2ccc(-c3nc4ccn5c(=O)[nH]nc5c4cc3-c3ccccc3)cc2)CCC1 [MK-2206] (first compound max 10 µM, 7x7, partner max 10 µM) ?
Reply: 0.322

Task item: Fill in: combination Emax of CC(=O)Nc1cccc(-n2c(=O)n(C3CC3)c(=O)c3c(Nc4ccc(I)cc4F)n(C)c(=O)c(C)c32)c1 [Trametinib] + Cc1nc(-c2cn3c(n2)-c2ccc(-c4cnn(C(C)(C)C(N)=O)c4)cc2OCC3)n(C(C)C)n1 [Taselisib] (first compound max 1 µM, 7x7, partner max 10 µM) is ___
Reply: 0.245

Task item: For the compound Cn1cnc2c(F)c(Nc3ccc(Br)cc3Cl)c(C(=O)NOCCO)cc21 [Selumetinib] + C[C@@H]1COCCN1C2=NC(=NC(=C2)C3(CC3)[S@](=N)(=O)C)C4=C5C=CNC5=NC=C4 [AZD6738] (first compound max 10 µM, 7x7, partner max 10 µM) , what combination Emax is on record?
Reply: 0.0701

Task item: Requested field: combination Emax. Item: Cc1c2c(nn1C)CSCc1cc(n(C)n1)CSc1cc(c3ccccc3c1)OCCCc1c(C(=O)O)n(C)c3c-2c(Cl)ccc13 [AZD5991] + Cn1cnc2c(F)c(Nc3ccc(Br)cc3Cl)c(C(=O)NOCCO)cc21 [Selumetinib] (first compound max 1 µM, 7x7, partner max 3 µM)
Reply: 0.409

Task item: Quick check: combination Emax of CS(=O)(=O)CCNCc1ccc(-c2ccc3ncnc(Nc4ccc(OCc5cccc(F)c5)c(Cl)c4)c3c2)o1 [Lapatinib] + C[C@@H](Oc1cc(-c2cnn(C3CCNCC3)c2)cnc1N)c1c(Cl)ccc(F)c1Cl [Crizotinib] (first compound max 10 µM, 7x7, partner max 10 µM) ?
Reply: 0.457

Task item: What does the record list as combination Emax for C=CCn1c(=O)c2cnc(Nc3ccc(N4CCN(C)CC4)cc3)nc2n1-c1cccc(C(C)(C)O)n1 [AZD1775] + Nc1ccn([C@@H]2O[C@H](CO)[C@@H](O)C2(F)F)c(=O)n1 [Gemcitabine] (first compound max 1 µM, partner max 0.3 µM) ?
Reply: 0.608

----------
System: COLO-668 (Small Cell Lung Carcinoma)
Experiment: Bliss excess, mean over the matrix (fraction); higher = more synergy
Known Bliss excess of a selection of molecules
Give only the figure.

# count of solved cases: 2
molecule	Bliss excess
CN(CCO)CC[C@H](CSc1ccccc1)Nc1ccc(S(=O)(=O)NC(=O)c2ccc(N3CCC([C@@H](O)c4ccccc4-c4ccc(Cl)cc4)CC3)cc2)cc1S(=O)(=O)C(F)(F)F [AZD4320] + CC(=O)O[C@H]1C(=O)[C@@]2(C)[C@H]([C@H](OC(=O)c3ccccc3)[C@]3(O)C[C@H](OC(=O)[C@H](O)[C@@H](NC(=O)c4ccccc4)c4ccccc4)C(C)=C1C3(C)C)[C@]1(OC(C)=O)CO[C@@H]1C[C@@H]2O [Paclitaxel] (first compound max 1 µM, 7x7, partner max 3 µM)	0.125
CN(C)CCCOc1ccc(-c2ccc3ncc4c(c3c2)n(C2CCOCC2)c(=O)n4C)cn1 [AZD0156] + C=CCn1c(=O)c2cnc(Nc3ccc(N4CCN(C)CC4)cc3)nc2n1-c1cccc(C(C)(C)O)n1 [AZD1775] (first compound max 1 µM, partner max 1 µM)	-0.039

Task item: I have this molecule here, C[C@@H](Oc1cc(-c2cnn(C3CCNCC3)c2)cnc1N)c1c(Cl)ccc(F)c1Cl [Crizotinib] + Cn1cnc2c(F)c(Nc3ccc(Br)cc3Cl)c(C(=O)NOCCO)cc21 [Selumetinib] (first compound max 10 µM, 7x7, partner max 10 µM) , and I need its recorded Bliss excess.
Reply: 0.0221

----------
# key: entry, value: Bliss excess
Tested on: COLO-679 (Melanoma)
Test: Bliss excess, mean over the matrix (fraction); higher = more synergy
Please state the value as a number alone, without comment.

compound	observed-result
Cc1c2c(nn1C)CSCc1cc(n(C)n1)CSc1cc(c3ccccc3c1)OCCCc1c(C(=O)O)n(C)c3c-2c(Cl)ccc13 [AZD5991] + CC(=O)O[C@H]1C(=O)[C@@]2(C)[C@H]([C@H](OC(=O)c3ccccc3)[C@]3(O)C[C@H](OC(=O)[C@H](O)[C@@H](NC(=O)c4ccccc4)c4ccccc4)C(C)=C1C3(C)C)[C@]1(OC(C)=O)CO[C@@H]1C[C@@H]2O [Paclitaxel] (first compound max 1 µM, 7x7, partner max 3 µM)	0.0314

Okay, next one:
Task item: Look at this compound and give its reported Bliss excess. CCN(CCO)CCCOc1ccc2c(Nc3cc(CC(=O)Nc4cccc(F)c4)[nH]n3)ncnc2c1 [AZD2811] + C=CCn1c(=O)c2cnc(Nc3ccc(N4CCN(C)CC4)cc3)nc2n1-c1cccc(C(C)(C)O)n1 [AZD1775] (first compound max 1 µM, partner max 1 µM)
Reply: -0.0325

----------
Test system: G-401 (Other Solid Carcinomas)
Assay: combination Emax (second highest fraction inhibited in the dose matrix, 72 h); higher = more inhibition; extreme values may be limits of the assay
Grouping key: combination Emax. Bins: bucket 1: < 0.5; bucket 2: ≥ 0.5 and < 0.7; bucket 3: ≥ 0.7

Completed entries (count: 4):
compound	answer-label
Cc1cc2ncnn2cc1Nc1ncc2c(n1)n(C1CCOCC1)c(=O)n2C [AZD7648] + C=CCn1c(=O)c2cnc(Nc3ccc(N4CCN(C)CC4)cc3)nc2n1-c1cccc(C(C)(C)O)n1 [AZD1775] (first compound max 10 µM, partner max 1 µM)	bucket 2
COc1nnc2ccc(N3CCC(c4ccc(OCCN5CCN(C)C(=O)[C@H]5C)cc4)CC3)nn12 [AZD5153] + C[C@@H]1COCCN1C2=NC(=NC(=C2)C3(CC3)[S@](=N)(=O)C)C4=C5C=CNC5=NC=C4 [AZD6738] (first compound max 1 µM, 7x7, partner max 10 µM)	bucket 3
Cc1cc2ncnn2cc1Nc1ncc2c(n1)n(C1CCOCC1)c(=O)n2C [AZD7648] + O=C(c1cc(Cc2n[nH]c(=O)c3ccccc23)ccc1F)N1CCN(C(=O)C2CC2)CC1 [Olaparib] (first compound max 10 µM, 7x7, partner max 10 µM)	bucket 1
Cc1c2c(nn1C)CSCc1cc(n(C)n1)CSc1cc(c3ccccc3c1)OCCCc1c(C(=O)O)n(C)c3c-2c(Cl)ccc13 [AZD5991] + C[C@@H]1COCCN1C2=NC(=NC(=C2)C3(CC3)[S@](=N)(=O)C)C4=C5C=CNC5=NC=C4 [AZD6738] (first compound max 1 µM, 7x7, partner max 10 µM)	bucket 3

Task item: Which class is correct for the following compound? CC1(C)CCC(CN2CCN(c3ccc(C(=O)NS(=O)(=O)c4ccc(NCC5CCOCC5)c([N+](=O)[O-])c4)c(Oc4cnc5[nH]ccc5c4)c3)CC2)=C(c2ccc(Cl)cc2)C1 [Venetoclax] + C1CN(CCC1(C(=O)N[C@@H](CCO)C2=CC=C(C=C2)Cl)N)C3=NC=NC4=C3C=CN4 [Capivasertib] (first compound max 1 µM, 7x7, partner max 3 µM)
Reply: bucket 2

Task item: Band assignment needed for Cc1c2c(nn1C)CSCc1cc(n(C)n1)CSc1cc(c3ccccc3c1)OCCCc1c(C(=O)O)n(C)c3c-2c(Cl)ccc13 [AZD5991] + Cn1cnc2c(F)c(Nc3ccc(Br)cc3Cl)c(C(=O)NOCCO)cc21 [Selumetinib] (first compound max 1 µM, 7x7, partner max 3 µM) please.
Reply: bucket 1
